# ASSAY COMMENT: growth inhibition of fluconazole-resistant C. albicans, confirmation, CaCi-2 isolate, dry powder retest, no file (AID 493081)
# EXPERIMENTAL CONTEXT: C. albicans CaCi-2 (fluconazole-resistant clinical isolate) + fluconazole, Alamar Blue, 48 h; at 12 µM (top of the series)
Could you please report measured activity change, negative = growth inhibition for the items listed next?
Give bare numbers, in %.

Some entries whose results are on file:
COMPOUND	UNIT DESCRIPTOR	NUMERIC READOUT
COC(=O)Cn1nc(-c2ccccc2)c2cccc(C(F)(F)F)c21	%	1.65
O=C1OCCC1n1nc(-c2ccccc2)c2ccccc21 (stereo unspecified)	%	-11.6

For every record below, what is its activity change, negative = growth inhibition?
1. COC(=O)Cn1nc(-c2ccccc2)c2ccc(C(F)(F)F)cc21
2. CCCCn1nc(-c2ccccc2)c2ccccc21
3. CCC(=O)Cn1nc(-c2ccccc2)c2ccccc21
4. O=C(Cn1nc(-c2ccccc2)c2ccccc21)OC1CCC1

-26.8
19.1
-16.1
-23.5
